Each entry below lists one item and its recorded IC50 value.
test system: S. cerevisiae tim10 strain, luminescence counterscreen; test: TIM10 strain luminescence inhibitors – S. cerevisiae, uHTS hits, counter-screen for tim23-1 inhibitor project, dose response (AID 504672);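 also: yeast grew roughly 22 hours at 25 °C before the luminescence read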

// known answers, use as guide
Compound | Experimental Target | IC50
Cc1ccc(S(=O)(=O)Oc2ccccc2C=C2C(=O)N(C)C(=O)N(C)C2=O)cc1 | S. cerevisiae tim10 strain, luminescence counterscreen | 4.57 µM
COc1cc2c3c(c1)C(C)=CC(C)(C)N3C(=O)C2=O | S. cerevisiae tim10 strain, luminescence counterscreen | 16 µM
Cc1nc2nc(-c3cccs3)[nH]c2cc1Br | S. cerevisiae tim10 strain, luminescence counterscreen | 14.9 µM
CCn1c(N2CCN(S(=O)(=O)c3ccc(OC)cc3)CC2)nc2ccccc21 | S. cerevisiae tim10 strain, luminescence counterscreen | 58 µM

Then this compound:
For the compound shown here, Cc1[nH]c2ccccc2c1C(=O)/C=C/c1ccccc1 , give the reported IC50. 12.9 µM
